Listed here: items and their measured pIC50.
Test: cells
Conditions: Human immunodeficiency virus 1, subtype B NL4-3, MT2
pIC50: −log10 of the molar value.
endpoint: pIC50

INSERT INTO results (smilestext, qualifieroperator, reportedresult) VALUES
  ('C=C(C)[C@@H]1CC[C@]2(CNCCCNCCO)CC[C@]3(C)[C@H](CC[C@@H]4[C@@]5(C)CC=C(c6ccc(C(=O)O)cc6)C(C)(C)[C@@H]5CC[C@]43C)[C@@H]12', '=', 7.74),
  ('C=C(C)[C@@H]1CC[C@]2(CNCCN(C(C)C)C(C)C)CC[C@]3(C)[C@H](CC[C@@H]4[C@@]5(C)CC=C(c6ccc(C(=O)O)cc6)C(C)(C)[C@@H]5CC[C@]43C)[C@@H]12', '=', 7.46),
  ('C=C(C)[C@@H]1CC[C@]2(CNCCNCCO)CC[C@]3(C)[C@H](CC[C@@H]4[C@@]5(C)CC=C(c6ccc(C(=O)O)cc6)C(C)(C)[C@@H]5CC[C@]43C)[C@@H]12', '=', 7.70),
  ('C=C(C)[C@@H]1CC[C@]2(C(=O)NCCN(C)C)CC[C@]3(C)[C@H](CC[C@@H]4[C@@]5(C)CC=C(c6ccc(C(=O)O)cc6)C(C)(C)[C@@H]5CC[C@]43C)[C@@H]12', '=', 7.51),
  ('C=C(C)[C@@H]1CC[C@]2(CNC(=O)CNC)CC[C@]3(C)[C@H](CC[C@@H]4[C@@]5(C)CC=C(c6ccc(C(=O)O)cc6)C(C)(C)[C@@H]5CC[C@]43C)[C@@H]12', '=', 7.57),
  ('C=C(C)[C@@H]1CC[C@]2(CNCCN3CCC(F)(F)CC3)CC[C@]3(C)[C@H](CC[C@@H]4[C@@]5(C)CC=C(c6ccc(C(=O)O)cc6)C(C)(C)[C@@H]5CC[C@]43C)[C@@H]12', '=', 7.24),
  ('C=C(C)[C@@H]1CC[C@]2(CN(CCN(C)C)C(=O)CCC(=O)O)CC[C@]3(C)[C@H](CC[C@@H]4[C@@]5(C)CC=C(c6ccc(C(=O)O)cc6)C(C)(C)[C@@H]5CC[C@]43C)[C@@H]12', '=', 6.19),
  ('C=C(C)[C@@H]1CC[C@]2(C(=O)O)CC[C@]3(C)[C@H](CC[C@@H]4[C@@]5(C)CC=C(c6ccc(C(=O)O)cc6)C(C)(C)[C@@H]5CC[C@]43C)[C@@H]12', '<', 5.22);

---

Assay: cells
Conditions: Human immunodeficiency virus 1, subtype B NL4-3, MT2
Quick reference for IC50 among some molecules
endpoint: IC50 (nM)

INSERT INTO assay_data (smilestext, valueunits, reportedresult) VALUES
  ('C=C(C)[C@@H]1CC[C@]2(CNCCN3CCN(C)CC3)CC[C@]3(C)[C@H](CC[C@@H]4[C@@]5(C)CC=C(c6ccc(C(=O)O)cc6)C(C)(C)[C@@H]5CC[C@]43C)[C@@H]12', 'nM', 14),
  ('C=C(C)[C@@H]1CC[C@]2(CNCCN(C)C)CC[C@]3(C)[C@H](CC[C@@H]4[C@@]5(C)CC=C(c6ccc(C(=O)O)cc6)C(C)(C)[C@@H]5CC[C@]43C)[C@@H]12', 'nM', 21),
  ('C=C(C)[C@@H]1CC[C@]2(CNCCCO)CC[C@]3(C)[C@H](CC[C@@H]4[C@@]5(C)CC=C(c6ccc(C(=O)O)cc6)C(C)(C)[C@@H]5CC[C@]43C)[C@@H]12', 'nM', 55),
  ('C=C(C)[C@@H]1CC[C@]2(CNCCCN(C)C)CC[C@]3(C)[C@H](CC[C@@H]4[C@@]5(C)CC=C(c6ccc(C(=O)O)cc6)C(C)(C)[C@@H]5CC[C@]43C)[C@@H]12', 'nM', 200),
  ('C=C(C)[C@@H]1CC[C@]2(CNCCN3CCS(=O)(=O)CC3)CC[C@]3(C)[C@H](CC[C@@H]4[C@@]5(C)CC=C(c6ccc(C(=O)O)cc6)C(C)(C)[C@@H]5CC[C@]43C)[C@@H]12', 'nM', 6),
  ('C=C(C)[C@@H]1CC[C@]2(CNCCN3CCCCC3)CC[C@]3(C)[C@H](CC[C@@H]4[C@@]5(C)CC=C(c6ccc(C(=O)O)cc6)C(C)(C)[C@@H]5CC[C@]43C)[C@@H]12', 'nM', 37),
  ('C=C(C)[C@@H]1CC[C@]2(CN(C)CCCN3CCS(=O)(=O)CC3)CC[C@]3(C)[C@H](CC[C@@H]4[C@@]5(C)CC=C(c6ccc(C(=O)O)cc6)C(C)(C)[C@@H]5CC[C@]43C)[C@@H]12', 'nM', 26),
  ('C=C(C)[C@@H]1CC[C@]2(CNCCn3ccnc3)CC[C@]3(C)[C@H](CC[C@@H]4[C@@]5(C)CC=C(c6ccc(C(=O)O)cc6)C(C)(C)[C@@H]5CC[C@]43C)[C@@H]12', 'nM', 9.3),
  ('C=C(C)[C@@H]1CC[C@]2(CNCCCN)CC[C@]3(C)[C@H](CC[C@@H]4[C@@]5(C)CC=C(c6ccc(C(=O)O)cc6)C(C)(C)[C@@H]5CC[C@]43C)[C@@H]12', 'nM', 40),
  ('C=C(C)[C@@H]1CC[C@]2(CNCCc3ccc(S(N)(=O)=O)cc3)CC[C@]3(C)[C@H](CC[C@@H]4[C@@]5(C)CC=C(c6ccc(C(=O)O)cc6)C(C)(C)[C@@H]5CC[C@]43C)[C@@H]12', 'nM', 16);
